- Measurement protocol: Inhibition of NS5A in HCV genotype 3a S52 infected in human HuH7 replicon cells assessed as reduction in viral replication after 3 days by luciferase reporter gene assay
pEC50: −log10 of the molar value.
A collection of molecules and their measured pEC50
Metric name: pEC50

1) COC(=O)N[C@H](C(=O)N1CC2(CC2)C[C@H]1c1nc(-c2ccc3c(c2)C(F)(F)c2cc(-c4ccc5[nH]c([C@@H]6[C@H]7CC[C@H](C7)N6C(=O)[C@@H](NC(=O)OC)C(C)C)nc5c4)ccc2-3)c[nH]1)C(C)C = 6.77
2) COC(=O)N[C@H](C(=O)N1CCC[C@H]1c1ncc(-c2ccc3c(c2)COc2cc4c(ccc5nc([C@@H]6CC[C@H](C)N6C(=O)[C@@H](NC(=O)OC)C(C)C)[nH]c54)cc2-3)[nH]1)C(C)C = 10.11
3) COC[C@H]1C[C@@H](c2nc(-c3ccc4c(c3)COc3cc5c(ccc6nc([C@@H]7CC[C@H](C)N7C(=O)[C@@H](NC(=O)OC)C(C)C)[nH]c65)cc3-4)c[nH]2)N(C(=O)[C@H](NC(=O)OC)c2ccccc2)C1 = 11.40
